- TARGET OR SYSTEM: ALK tyrosine kinase receptor (Homo sapiens, UniProt Q9UM73, L1196M)
- METHOD SUMMARY: Inhibition of human N-terminal GST-fused ALK L1196M mutant cytoplasmic domain (1058 to 1620 residues) expressed in baculovirus infected Sf21 insect cells using Srctide as substrate measured after 1 hr by mobility shift assay
Attribute: pIC50
Kindly note that pIC50 refers to -log10 of the concentration in mol/L and answer with the value alone.

Completed entries (count: 5):
>>> quantitative_readout("CN(C)Cc1nc2ccc(Nc3ncc(Cl)c(Nc4ccccc4C(=O)N(C)C)n3)cc2[nH]1")
8.42
>>> quantitative_readout("CN1CCN(Cc2nc3ccc(Nc4ncc(Cl)c(Nc5ccccc5NS(C)(=O)=O)n4)cc3[nH]2)CC1")
8.31
>>> quantitative_readout("CS(=O)(=O)Nc1ccccc1Nc1nc(Nc2ccc3nc(CN4CCCCC4)[nH]c3c2)ncc1Cl")
8.08
>>> quantitative_readout("CN1CCN(Cc2nc3ccc(Nc4ncc(Cl)c(Nc5ccccc5C(=O)N(C)C)n4)cc3[nH]2)CC1")
8.42
>>> quantitative_readout("CN(C)C(=O)c1ccccc1Nc1nc(Nc2ccc3nc(CN4CCCC4)[nH]c3c2)ncc1Cl")
8.28

Now turn to the next molecule.
So the reported pIC50 for `CN(C)Cc1nc2ccc(Nc3ncc(Cl)c(Nc4ccccc4NS(C)(=O)=O)n3)cc2[nH]1` , on ALK tyrosine kinase receptor (Homo sapiens, UniProt Q9UM73, L1196M), turned out to be 8.43

----------
- TARGET OR SYSTEM: Receptor-type tyrosine-protein kinase FLT3 (Homo sapiens)
- Sequence (P36888 whole entry): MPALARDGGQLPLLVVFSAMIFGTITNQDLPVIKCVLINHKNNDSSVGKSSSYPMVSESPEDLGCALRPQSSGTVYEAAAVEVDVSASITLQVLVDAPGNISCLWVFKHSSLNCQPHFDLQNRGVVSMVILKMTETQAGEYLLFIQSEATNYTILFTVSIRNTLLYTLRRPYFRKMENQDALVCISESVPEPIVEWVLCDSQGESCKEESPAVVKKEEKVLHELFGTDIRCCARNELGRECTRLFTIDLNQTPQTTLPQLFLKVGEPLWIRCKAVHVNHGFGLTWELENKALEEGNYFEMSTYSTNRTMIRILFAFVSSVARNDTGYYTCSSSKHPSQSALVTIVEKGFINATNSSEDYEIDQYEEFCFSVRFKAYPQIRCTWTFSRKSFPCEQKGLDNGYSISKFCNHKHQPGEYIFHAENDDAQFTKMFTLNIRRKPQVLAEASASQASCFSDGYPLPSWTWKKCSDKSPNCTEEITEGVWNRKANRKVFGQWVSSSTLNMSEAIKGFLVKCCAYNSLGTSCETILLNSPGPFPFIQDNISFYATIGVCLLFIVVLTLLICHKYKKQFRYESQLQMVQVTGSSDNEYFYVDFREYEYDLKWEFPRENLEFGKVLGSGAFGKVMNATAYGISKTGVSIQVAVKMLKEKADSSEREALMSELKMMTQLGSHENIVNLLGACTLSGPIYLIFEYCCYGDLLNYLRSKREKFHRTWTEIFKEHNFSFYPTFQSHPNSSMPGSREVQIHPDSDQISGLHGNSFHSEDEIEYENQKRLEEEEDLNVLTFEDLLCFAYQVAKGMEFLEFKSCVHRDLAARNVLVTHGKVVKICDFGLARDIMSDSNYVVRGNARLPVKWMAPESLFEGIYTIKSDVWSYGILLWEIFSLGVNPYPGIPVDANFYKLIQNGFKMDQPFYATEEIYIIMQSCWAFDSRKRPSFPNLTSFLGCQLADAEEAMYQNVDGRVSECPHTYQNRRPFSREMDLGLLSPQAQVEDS
ATTRIBUTE MEASURED: pIC50
Please express pIC50 as -log10 of the molar concentration.

Take a look at these entries with their results.
>>> quantitative_readout("CS(=O)(=O)Nc1ccccc1Nc1nc(Nc2ccc3nc(CN4CCCCC4)[nH]c3c2)ncc1Cl")
6.73
>>> quantitative_readout("CN1CCN(Cc2nc3ccc(Nc4ncc(Cl)c(Nc5ccccc5NS(C)(=O)=O)n4)cc3[nH]2)CC1")
6.87
>>> quantitative_readout("CN(C)C(=O)c1ccccc1Nc1nc(Nc2ccc3nc(CN4CCCC4)[nH]c3c2)ncc1Cl")
6.99

Data point: `Cc1cc(Nc2ncc(Cl)c(Nc3ccccc3S(=O)(=O)C(C)C)n2)c(OC(C)C)cc1C1CCNCC1` ; pIC50 = 7.06

----------
- TARGET OR SYSTEM: ALK tyrosine kinase receptor (Homo sapiens, UniProt Q9UM73, G1202R)
- Sequence (Q9UM73 19-1620 G1202R limits assumed): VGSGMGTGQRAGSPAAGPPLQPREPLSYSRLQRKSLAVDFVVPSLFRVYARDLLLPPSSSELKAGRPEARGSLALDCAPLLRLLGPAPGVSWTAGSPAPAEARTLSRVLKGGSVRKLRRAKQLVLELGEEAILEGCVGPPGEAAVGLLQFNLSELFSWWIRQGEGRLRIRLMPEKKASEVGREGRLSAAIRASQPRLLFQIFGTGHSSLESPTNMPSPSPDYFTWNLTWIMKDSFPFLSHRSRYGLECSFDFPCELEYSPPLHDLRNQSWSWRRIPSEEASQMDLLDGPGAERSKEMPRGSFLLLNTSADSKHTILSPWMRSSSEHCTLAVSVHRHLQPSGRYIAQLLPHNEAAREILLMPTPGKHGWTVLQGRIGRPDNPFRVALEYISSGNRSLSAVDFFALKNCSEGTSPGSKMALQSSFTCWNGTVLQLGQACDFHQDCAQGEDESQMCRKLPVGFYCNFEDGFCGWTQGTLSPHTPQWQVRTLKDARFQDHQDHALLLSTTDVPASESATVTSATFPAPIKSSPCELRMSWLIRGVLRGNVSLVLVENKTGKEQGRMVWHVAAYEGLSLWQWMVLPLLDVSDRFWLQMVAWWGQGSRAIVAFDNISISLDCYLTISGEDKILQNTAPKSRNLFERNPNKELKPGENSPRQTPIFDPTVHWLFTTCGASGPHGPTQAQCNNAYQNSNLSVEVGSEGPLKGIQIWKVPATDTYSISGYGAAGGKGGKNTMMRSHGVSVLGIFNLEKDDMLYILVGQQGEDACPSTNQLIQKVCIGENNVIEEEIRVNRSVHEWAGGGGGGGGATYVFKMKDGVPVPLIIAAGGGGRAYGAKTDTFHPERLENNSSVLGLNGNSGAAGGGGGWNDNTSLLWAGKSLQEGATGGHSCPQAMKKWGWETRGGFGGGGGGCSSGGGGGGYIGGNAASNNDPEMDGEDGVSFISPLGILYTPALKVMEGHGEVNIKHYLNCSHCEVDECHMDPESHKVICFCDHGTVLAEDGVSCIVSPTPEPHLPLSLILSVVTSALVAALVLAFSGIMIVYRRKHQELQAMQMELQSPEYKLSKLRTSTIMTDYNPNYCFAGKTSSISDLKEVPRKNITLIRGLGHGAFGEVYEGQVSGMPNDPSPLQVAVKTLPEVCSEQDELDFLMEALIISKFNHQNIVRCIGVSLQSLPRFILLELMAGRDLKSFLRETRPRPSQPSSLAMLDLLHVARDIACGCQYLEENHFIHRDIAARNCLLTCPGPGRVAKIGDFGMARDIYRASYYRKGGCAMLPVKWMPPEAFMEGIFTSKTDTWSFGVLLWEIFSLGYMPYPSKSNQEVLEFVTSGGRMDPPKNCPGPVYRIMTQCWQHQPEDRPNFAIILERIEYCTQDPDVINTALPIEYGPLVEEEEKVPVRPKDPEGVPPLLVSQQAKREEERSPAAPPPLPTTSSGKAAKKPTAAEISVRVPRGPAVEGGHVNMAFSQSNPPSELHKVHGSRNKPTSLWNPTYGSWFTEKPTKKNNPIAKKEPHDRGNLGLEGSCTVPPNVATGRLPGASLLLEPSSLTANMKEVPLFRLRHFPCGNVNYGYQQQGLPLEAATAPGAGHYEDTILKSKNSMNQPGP
- METHOD SUMMARY: Inhibition of human N-terminal GST-fused ALK G1202R mutant cytoplasmic domain (1058 to 1620 residues) expressed in baculovirus infected Sf21 insect cells using Srctide as substrate measured after 1 hr by mobility shift assay
Overview of reported pIC50 across a group of molecules:
Would you please state pIC50, meaning minus log10 of the concentration in mol/L, as a bare number?

Past entries and their recorded results:
>>> quantitative_readout("CS(=O)(=O)Nc1ccccc1Nc1nc(Nc2ccc3nc(CN4CCCCC4)[nH]c3c2)ncc1Cl")
8.15
>>> quantitative_readout("CN1CCN(Cc2nc3ccc(Nc4ncc(Cl)c(Nc5ccccc5C(=O)N(C)C)n4)cc3[nH]2)CC1")
8.24
>>> quantitative_readout("CN(C)Cc1nc2ccc(Nc3ncc(Cl)c(Nc4ccccc4NS(C)(=O)=O)n3)cc2[nH]1")
8.09
>>> quantitative_readout("CN(C)C(=O)c1ccccc1Nc1nc(Nc2ccc3nc(CN4CCCC4)[nH]c3c2)ncc1Cl")
7.88
>>> quantitative_readout("CN1CCN(Cc2nc3ccc(Nc4ncc(Cl)c(Nc5ccccc5NS(C)(=O)=O)n4)cc3[nH]2)CC1")
8.15

Next, consider the following molecule.
# molecule `CN(C)Cc1nc2ccc(Nc3ncc(Cl)c(Nc4ccccc4C(=O)N(C)C)n3)cc2[nH]1` ; its pIC50 = 8.16

----------
UniProt Q9UM73 measurements of IC50, listed per entry.

>>> result("CN(C)Cc1nc2ccc(Nc3ncc(Cl)c(Nc4ccccc4C(=O)N(C)C)n3)cc2[nH]1")
"3.2 nM"
>>> result("CN1CCN(Cc2nc3ccc(Nc4ncc(Cl)c(Nc5ccccc5C(=O)N(C)C)n4)cc3[nH]2)CC1")
"2.7 nM"
>>> result("CS(=O)(=O)Nc1ccccc1Nc1nc(Nc2ccc3nc(CN4CCCCC4)[nH]c3c2)ncc1Cl")
"5.3 nM"
>>> result("CN1CCN(Cc2nc3ccc(Nc4ncc(Cl)c(Nc5ccccc5NS(C)(=O)=O)n4)cc3[nH]2)CC1")
"3.6 nM"
>>> result("CN(C)Cc1nc2ccc(Nc3ncc(Cl)c(Nc4ccccc4NS(C)(=O)=O)n3)cc2[nH]1")
"4 nM"

For the next question, use this molecule.
So the reported IC50 for `CN(C)C(=O)c1ccccc1Nc1nc(Nc2ccc3nc(CN4CCCC4)[nH]c3c2)ncc1Cl` , on UniProt Q9UM73, turned out to be 3.4 nM

----------
- TARGET OR SYSTEM: Receptor-type tyrosine-protein kinase FLT3 (Homo sapiens, UniProt P36888)
- Sequence (P36888 whole entry): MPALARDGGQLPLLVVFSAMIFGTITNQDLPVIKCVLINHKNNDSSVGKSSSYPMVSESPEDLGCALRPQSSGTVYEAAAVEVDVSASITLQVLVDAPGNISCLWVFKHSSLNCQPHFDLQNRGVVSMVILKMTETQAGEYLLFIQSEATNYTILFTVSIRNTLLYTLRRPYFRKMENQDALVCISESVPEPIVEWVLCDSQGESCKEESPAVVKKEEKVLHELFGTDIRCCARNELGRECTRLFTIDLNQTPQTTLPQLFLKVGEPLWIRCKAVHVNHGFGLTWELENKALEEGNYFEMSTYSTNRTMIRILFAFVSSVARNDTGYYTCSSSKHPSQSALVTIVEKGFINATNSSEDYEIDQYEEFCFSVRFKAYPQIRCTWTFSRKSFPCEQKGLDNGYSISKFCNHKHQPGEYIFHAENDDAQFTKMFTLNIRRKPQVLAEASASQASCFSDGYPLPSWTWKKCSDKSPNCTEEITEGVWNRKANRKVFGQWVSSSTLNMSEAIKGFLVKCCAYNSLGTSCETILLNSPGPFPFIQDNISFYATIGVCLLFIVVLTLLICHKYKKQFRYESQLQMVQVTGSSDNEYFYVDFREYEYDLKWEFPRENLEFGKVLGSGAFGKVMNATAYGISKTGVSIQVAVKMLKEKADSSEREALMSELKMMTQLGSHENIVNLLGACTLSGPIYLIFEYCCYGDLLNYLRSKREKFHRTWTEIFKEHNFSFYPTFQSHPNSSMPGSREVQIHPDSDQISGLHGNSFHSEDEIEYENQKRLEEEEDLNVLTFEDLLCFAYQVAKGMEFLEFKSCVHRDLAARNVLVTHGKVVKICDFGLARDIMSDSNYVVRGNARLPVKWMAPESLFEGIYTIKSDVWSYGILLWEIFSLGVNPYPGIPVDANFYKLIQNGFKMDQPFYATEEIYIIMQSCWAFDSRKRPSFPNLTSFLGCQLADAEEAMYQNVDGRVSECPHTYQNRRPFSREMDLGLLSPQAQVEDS
Listed here: items and their measured IC50.

Illustrative cases are given below, each with its answer.
>>> result("CN1CCN(Cc2nc3ccc(Nc4ncc(Cl)c(Nc5ccccc5C(=O)N(C)C)n4)cc3[nH]2)CC1")
"> 200 nM"
>>> result("CN(C)Cc1nc2ccc(Nc3ncc(Cl)c(Nc4ccccc4NS(C)(=O)=O)n3)cc2[nH]1")
"> 200 nM"

Now for a further molecule.
Value of measured IC50 for the entry `CN(C)Cc1nc2ccc(Nc3ncc(Cl)c(Nc4ccccc4C(=O)N(C)C)n3)cc2[nH]1` : > 200 nM
